Test system: Enterococcus faecium
test name: Antimicrobial activity against vancomycin-resistant Enterococcus faecium ATCC 51559 by broth dilution method
Format: functional
measured quantity: MIC (µg/mL)
Give just the number in µg/mL; leave the unit off.

Determine reported MIC for CCCCCCCCCC(=O)N[C@@H](Cc1c[nH]c2ccccc12)C(=O)N[C@H](CC(N)=O)C(=O)N[C@@H](CC(=O)O)C(=O)N[C@@H]1C(=O)NCC(=O)N[C@@H](CCCN)C(=O)N[C@@H](CC(=O)O)C(=O)N[C@H](C)C(=O)N[C@@H](CC(=O)O)C(=O)NCC(=O)N[C@H](CO)C(=O)N[C@@H]([C@H](C)CC(=O)O)C(=O)N[C@@H](CC(=O)c2ccccc2N)C(=O)O[C@@H]1C ; test system: Enterococcus faecium.
2

* * *

test name: Cmax in healthy human male at 4 mg/kg, iv every 24 hrs by LC/MS/MS analysis
Type: ADME, organism-based
Set-up: dose 4 mg/kg, route intravenous
setup conditions: in vivo
measured quantity: Cmax (µg/mL)
Please give a number only; it is taken to be in µg/mL.

Supply recorded Cmax for CCCCCCCCCC(=O)N[C@@H](Cc1c[nH]c2ccccc12)C(=O)N[C@H](CC(N)=O)C(=O)N[C@@H](CC(=O)O)C(=O)N[C@@H]1C(=O)NCC(=O)N[C@@H](CCCN)C(=O)N[C@@H](CC(=O)O)C(=O)N[C@H](C)C(=O)N[C@@H](CC(=O)O)C(=O)NCC(=O)N[C@H](CO)C(=O)N[C@@H]([C@H](C)CC(=O)O)C(=O)N[C@@H](CC(=O)c2ccccc2N)C(=O)O[C@@H]1C here.
64

* * *

test name: Free fraction in healthy human male at 200 mg, iv every 24 hrs by LC/MS/MS analysis
Type: ADME, organism-based
setup conditions: in vivo
measured quantity: fraction unbound at 24 h

Give recorded fraction unbound at 24 h. CN[C@H](CC(C)C)C(=O)N[C@H]1C(=O)N[C@@H](CC(N)=O)C(=O)N[C@H]2C(=O)N[C@H]3C(=O)N[C@H](C(=O)N[C@H](C(=O)O)c4cc(O)cc(O)c4-c4cc3ccc4O)[C@H](O[C@H]3C[C@](C)(N)[C@@H](O)[C@H](C)O3)c3ccc(c(Cl)c3)Oc3cc2cc(c3O[C@@H]2O[C@H](CO)[C@@H](O)[C@H](O)[C@H]2O[C@H]2C[C@](C)(NCc3ccc(-c4ccc(Cl)cc4)cc3)[C@@H](O)[C@H](C)O2)Oc2ccc(cc2Cl)[C@H]1O
0.12

* * *

Reported MIC values for a set of compounds
Test system: Enterococcus faecium
test name: Antimicrobial activity against vancomycin-resistant Enterococcus faecium ATCC 51559 by broth dilution method
Format: functional

compound	MIC
CN[C@H](CC(C)C)C(=O)N[C@H]1C(=O)N[C@@H](CC(N)=O)C(=O)N[C@H]2C(=O)N[C@H]3C(=O)N[C@H](C(=O)N[C@H](C(=O)O)c4cc(O)cc(O)c4-c4cc3ccc4O)[C@H](O)c3ccc(c(Cl)c3)Oc3cc2cc(c3O[C@@H]2O[C@H](CO)[C@@H](O)[C@H](O)[C@H]2O[C@H]2C[C@](C)(N)[C@H](O)[C@H](C)O2)Oc2ccc(cc2Cl)[C@H]1O [VANCOMYCIN]	> 128 µg/mL

Answer briefly: MIC recorded on Enterococcus faecium for CC(=O)NC[C@H]1CN(c2ccc(N3CCOCC3)c(F)c2)C(=O)O1 [LINEZOLID]
1 µg/mL

Look up and report measured MIC (Enterococcus faecium) for the following compound: CN[C@H](CC(C)C)C(=O)N[C@H]1C(=O)N[C@@H](CC(N)=O)C(=O)N[C@H]2C(=O)N[C@H]3C(=O)N[C@H](C(=O)N[C@H](C(=O)O)c4cc(O)cc(O)c4-c4cc3ccc4O)[C@H](O[C@H]3C[C@](C)(N)[C@@H](O)[C@H](C)O3)c3ccc(c(Cl)c3)Oc3cc2cc(c3O[C@@H]2O[C@H](CO)[C@@H](O)[C@H](O)[C@H]2O[C@H]2C[C@](C)(NCc3ccc(-c4ccc(Cl)cc4)cc3)[C@@H](O)[C@H](C)O2)Oc2ccc(cc2Cl)[C@H]1O [ORITAVANCIN]
0.25 µg/mL
